tgt: Class B(Imi-1) beta-lactamase (Enterobacter cloacae, UniProt Q46991)
Sequence (Q46991 entry or part of it): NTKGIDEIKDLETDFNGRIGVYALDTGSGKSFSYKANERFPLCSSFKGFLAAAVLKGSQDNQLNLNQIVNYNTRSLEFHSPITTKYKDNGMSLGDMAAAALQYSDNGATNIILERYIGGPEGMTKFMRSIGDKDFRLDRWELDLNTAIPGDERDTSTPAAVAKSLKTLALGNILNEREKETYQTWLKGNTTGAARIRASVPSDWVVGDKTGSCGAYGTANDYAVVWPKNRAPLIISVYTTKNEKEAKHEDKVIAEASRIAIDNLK
measurement-description: beta-lactamase inhibition, spectrophotometric with nitrocefin
condition-details: 10-minute preincubation of enzyme with inhibitor at 25° C., nitrocefin substrate
pIC50: −log10 of the molar value.
measurement-type: pIC50

{"compound-string": "CC(C)(C)[Si](C)(C)O[C@H]1C[C@]12C(=O)N1[C@@H](C(=O)[O-])C(C)(C)S(=O)(=O)[C@@H]12.[Na+]", "reported-value": 4.92}

---

tgt: Class A(TEM-1) beta-lactamase (Escherichia coli)
Sequence (P62593 24-286 limits assumed): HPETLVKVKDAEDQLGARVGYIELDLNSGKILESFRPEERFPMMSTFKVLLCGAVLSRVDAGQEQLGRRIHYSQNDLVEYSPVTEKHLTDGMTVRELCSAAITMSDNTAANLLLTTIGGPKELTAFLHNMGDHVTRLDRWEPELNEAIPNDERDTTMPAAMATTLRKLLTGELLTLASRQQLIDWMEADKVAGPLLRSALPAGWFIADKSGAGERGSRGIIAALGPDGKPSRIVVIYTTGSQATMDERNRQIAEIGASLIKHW
measurement-description: beta-lactamase inhibition, spectrophotometric with nitrocefin
Format: biochemical
condition-details: IC50 Class A(TEM-1), 10-minute preincubation of enzyme with inhibitor at 25° C., nitrocefin substrate
pIC50: −log10 of the molar value.
Give true when the value for pIC50 is at least 5. Give false when it is less.

{"compound": "CC1(C)C(C(=O)O)N2C(=O)C3(CC3OC3CCCCC3)C2S1(=O)=O (single isomer, unassigned) [Example 14]", "category-label": "false"}
{"compound": "CC1(C)C(C(=O)O)N2C(=O)C3(CC3OC3CCCCC3)C2S1(=O)=O (single isomer, unassigned) [Example 12]", "category-label": "true"}
{"compound": "CC(C)(C)[Si](C)(C)OC1C[C@@]12C(=O)N1[C@@H](C(=O)O)C(C)(C)S(=O)(=O)[C@@H]12 (single isomer, unassigned) [Example 8]", "category-label": "false"}
{"compound": "CC1(C)C(C(=O)O)N2C(=O)C3(CC3OC3CCCCC3)C2S1(=O)=O (single isomer, unassigned) [Example 13]", "category-label": "true"}

---

tgt: Class C(AmpC) beta-lactamase (UniProt P00811)
measurement-description: beta-lactamase inhibition, spectrophotometric with nitrocefin
condition-details: 10-minute preincubation of enzyme with inhibitor at 25° C., nitrocefin substrate
pIC50: −log10 of the molar value.

{"molecule": "CC1(C)C(C(=O)O)N2C(=O)C3(CC3OC3CCCCC3)C2S1(=O)=O (single isomer, unassigned) [Example 13]", "pIC50": 7.43}
{"molecule": "CC1(C)C(C(=O)O)N2C(=O)C3(CC3OC3CCCCC3)C2S1(=O)=O (single isomer, unassigned) [Example 12]", "pIC50": 4.49}
{"molecule": "CC1(C)C(C(=O)O)N2C(=O)C3(CC3OC3CCCCC3)C2S1(=O)=O (single isomer, unassigned) [Example 14]", "pIC50": 5.50}
{"molecule": "CC(C)(C)[Si](C)(C)OC1CC12C(=O)N1[C@@H](C(=O)O)C(C)(C)S(=O)(=O)[C@@H]12 (single isomer, unassigned)", "pIC50": 6.46}
{"molecule": "CC1(C)[C@H](C(=O)O)N2C(=O)C[C@H]2S1(=O)=O [Sulbactam, reference compound]", "pIC50": 4.18}
{"molecule": "CC(C)(C)[Si](C)(C)OC1C[C@@]12C(=O)N1[C@@H](C(=O)O)C(C)(C)S(=O)(=O)[C@@H]12 (single isomer, unassigned)", "pIC50": 5.72}
{"molecule": "CC(C)(C)[Si](C)(C)O[C@H]1C[C@]12C(=O)N1[C@@H](C(=O)[O-])C(C)(C)S(=O)(=O)[C@@H]12.[Na+]", "pIC50": 7.68}
